# measurement_protocol: PAMPA (parallel artificial membrane permeability assay)
# Format: in vitro ADME
# test_settings: PAMPA; pH 5.0; read-out: PAMPA at pH 5.0
Parameter Papp: see the listing below.
# number only, unit ×10⁻⁶ cm/s dropped from output

chem_smiles | endpoint_value
Cc1cc(OC(=O)c2ccc(NC(=N)N)cc2)no1.Cl | 0.5

Switching to the query record.
Form field Papp, entry Cl.N=C(N)Nc1ccc(C(=O)Oc2ccc(CC(=O)N[C@@H](CC(=O)O)C(=O)O)cc2)cc1 : 0.1

---

Parameter pIC50: see the listing below.
# tested_on: human enteropeptidase (Homo sapiens, UniProt P98073)
# Construct: purchased ITSI-Biosciences, LLC #REN-260
# Sequence (P98073 whole entry): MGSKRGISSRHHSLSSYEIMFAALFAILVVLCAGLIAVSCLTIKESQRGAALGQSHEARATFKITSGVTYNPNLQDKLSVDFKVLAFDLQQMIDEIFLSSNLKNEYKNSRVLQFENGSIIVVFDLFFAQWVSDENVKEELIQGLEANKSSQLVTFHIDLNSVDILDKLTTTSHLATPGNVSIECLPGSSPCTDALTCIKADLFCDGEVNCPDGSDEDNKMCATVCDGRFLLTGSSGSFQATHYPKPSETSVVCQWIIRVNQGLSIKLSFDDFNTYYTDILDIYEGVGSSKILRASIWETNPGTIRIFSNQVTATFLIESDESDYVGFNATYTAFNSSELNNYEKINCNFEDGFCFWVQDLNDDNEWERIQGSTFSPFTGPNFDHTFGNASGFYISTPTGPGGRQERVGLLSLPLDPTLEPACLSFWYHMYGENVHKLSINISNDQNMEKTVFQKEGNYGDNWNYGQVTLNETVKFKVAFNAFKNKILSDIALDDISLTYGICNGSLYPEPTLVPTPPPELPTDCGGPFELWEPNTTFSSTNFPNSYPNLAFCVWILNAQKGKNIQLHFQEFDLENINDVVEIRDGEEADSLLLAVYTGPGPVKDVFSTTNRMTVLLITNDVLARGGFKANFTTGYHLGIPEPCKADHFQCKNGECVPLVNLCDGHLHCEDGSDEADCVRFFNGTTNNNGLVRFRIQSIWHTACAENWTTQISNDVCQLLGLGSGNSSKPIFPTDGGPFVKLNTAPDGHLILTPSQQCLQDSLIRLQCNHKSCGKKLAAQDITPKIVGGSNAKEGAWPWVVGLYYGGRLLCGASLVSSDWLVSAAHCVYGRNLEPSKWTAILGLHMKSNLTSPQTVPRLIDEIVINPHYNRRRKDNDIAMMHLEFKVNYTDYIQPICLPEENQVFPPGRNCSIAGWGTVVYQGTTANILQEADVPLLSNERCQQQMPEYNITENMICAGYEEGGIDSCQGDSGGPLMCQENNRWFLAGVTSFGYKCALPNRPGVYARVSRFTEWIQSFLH
# measurement_protocol: Human enteropeptidase enzyme assay
# Type: biochemical
# test_settings: 6 min; supplement csv, unit inferred; read-out: human enteropeptidase IC50 (6 min)
Reminder that pIC50 means the negative base-10 logarithm of the concentration expressed in mol/L.

chem_smiles | tested_on | pIC50
N=C(N)Nc1ccc(C(=O)Oc2ccc(CC(=O)NCC(=O)O)cc2)cc1.O=C(O)C(F)(F)F | human enteropeptidase (Homo sapiens, UniProt P98073) | 6.27
Cc1cc(OC(=O)c2ccc(NC(=N)N)cc2)no1.Cl | human enteropeptidase (Homo sapiens, UniProt P98073) | 5.82

Switching to the query record.
Form field pIC50, entry CS(=O)(=O)O.N=C(N)Nc1ccc(C(=O)Oc2ccccc2)cc1 : 5.25
